- assay-details: Human liver microsome clearance / stability
- Format: in vitro ADME
- stated-conditions: human liver microsomes; Table 5
Items are presented alongside their recorded HLM (human liver microsome stability).
All answers are understood in mL/min/kg, so give the number only.

Some entries whose results are on file:
compound: C[C@H]1[C@H](F)C[C@@H](C(=O)NCc2cc(-c3cnc(C(F)(F)F)nc3)ncc2C(F)(F)F)N1S(=O)(=O)c1ccc(Cl)cn1 [Compound 2]
HLM (human liver microsome stability) (mL/min/kg): 6.1
--
compound: C[C@H]1[C@H](F)C[C@@H](C(=O)NCc2cc(-c3cnc(C(F)(F)F)nc3)ncc2C(F)(F)F)N1S(=O)(=O)c1ccc(F)cn1 (single isomer, unassigned) [Compound 1]
HLM (human liver microsome stability) (mL/min/kg): 4.1
--
compound: C[C@H]1[C@H](F)C[C@@H](C(=O)NCc2cc(-c3cnc(C(F)(F)F)nc3)ncc2C(F)(F)F)N1S(=O)(=O)c1cncc(F)c1 [Compound 3]
HLM (human liver microsome stability) (mL/min/kg): 19
--
compound: C[C@H]1[C@H](F)C[C@@H](C(=O)NCc2cc(-c3cnc(C(F)(F)F)nc3)ncc2C(F)(F)F)N1S(=O)(=O)c1ccc(C#N)nc1 [Compound 4]
HLM (human liver microsome stability) (mL/min/kg): 3.7
--
compound: C[C@H]1[C@H](F)C[C@@H](C(=O)NCc2cc(-c3cnc(C(F)(F)F)nc3)ncc2C(F)(F)F)N1S(=O)(=O)c1ccncc1 [Compound 6]
HLM (human liver microsome stability) (mL/min/kg): 19

Answer with the recorded HLM (human liver microsome stability) of C[C@H]1[C@H](F)C[C@@H](C(=O)NCc2cc(-c3cnc(C(F)(F)F)nc3)ncc2C(F)(F)F)N1S(=O)(=O)c1ccc(Cl)nc1 [Compound 5] only.
6.6

====

- study-system: human TRPA1 (Homo sapiens)
- Construct: expressed in transfected cells; host or cells: CHO cells
- Sequence (O75762 whole entry): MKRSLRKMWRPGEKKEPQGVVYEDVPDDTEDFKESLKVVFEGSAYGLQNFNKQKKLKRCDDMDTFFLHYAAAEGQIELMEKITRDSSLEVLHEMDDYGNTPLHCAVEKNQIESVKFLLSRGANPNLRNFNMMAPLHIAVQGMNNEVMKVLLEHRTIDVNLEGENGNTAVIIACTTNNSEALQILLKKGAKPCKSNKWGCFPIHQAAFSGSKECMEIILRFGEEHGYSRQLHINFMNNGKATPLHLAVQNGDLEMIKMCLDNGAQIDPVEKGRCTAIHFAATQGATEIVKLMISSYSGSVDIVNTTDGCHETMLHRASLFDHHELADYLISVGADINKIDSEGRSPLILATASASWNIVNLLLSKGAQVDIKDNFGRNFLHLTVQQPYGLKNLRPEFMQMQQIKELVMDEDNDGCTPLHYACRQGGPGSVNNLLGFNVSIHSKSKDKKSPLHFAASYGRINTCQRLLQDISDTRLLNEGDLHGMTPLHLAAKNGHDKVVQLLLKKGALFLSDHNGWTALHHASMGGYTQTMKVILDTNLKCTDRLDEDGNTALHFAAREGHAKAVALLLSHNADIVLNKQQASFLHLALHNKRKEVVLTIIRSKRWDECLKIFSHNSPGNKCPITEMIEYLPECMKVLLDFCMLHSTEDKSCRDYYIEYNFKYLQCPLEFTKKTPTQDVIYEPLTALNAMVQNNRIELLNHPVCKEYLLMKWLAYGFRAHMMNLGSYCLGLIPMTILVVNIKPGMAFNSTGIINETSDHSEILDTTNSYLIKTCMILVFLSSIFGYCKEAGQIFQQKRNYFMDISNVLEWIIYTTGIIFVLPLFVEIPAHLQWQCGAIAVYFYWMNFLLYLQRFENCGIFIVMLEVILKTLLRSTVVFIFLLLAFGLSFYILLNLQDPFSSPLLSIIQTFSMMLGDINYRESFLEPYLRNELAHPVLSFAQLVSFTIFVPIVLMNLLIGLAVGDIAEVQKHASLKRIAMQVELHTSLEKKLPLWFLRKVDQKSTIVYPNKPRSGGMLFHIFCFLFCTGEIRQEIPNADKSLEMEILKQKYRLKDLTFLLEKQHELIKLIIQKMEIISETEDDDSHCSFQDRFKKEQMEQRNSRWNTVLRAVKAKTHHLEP
- assay-details: Human Ca2+ MAX IC50 calcium assay
- Assay type: cell-based
- stated-conditions: Table 5; read-out: H Ca2+ MAX (human CA2+ MAX IC50)
Hi! Could you tag entries with IC50 below 20 nM as Criterion met, and those at or above as Criterion not met? Much appreciated.

compound: C[C@H]1[C@H](F)C[C@@H](C(=O)NCc2cc(-c3cnc(C(F)(F)F)nc3)ncc2C(F)(F)F)N1S(=O)(=O)c1ccc(C#N)nc1
discrete-label: Criterion not met

For C[C@H]1[C@H](F)C[C@@H](C(=O)NCc2cc(-c3cnc(C(F)(F)F)nc3)ncc2C(F)(F)F)N1S(=O)(=O)c1ccc(Cl)cn1 , is the recorded IC50 below the cut-off of 20 nM?
Criterion met

For C[C@H]1[C@H](F)C[C@@H](C(=O)NCc2cc(-c3cnc(C(F)(F)F)nc3)ncc2C(F)(F)F)N1S(=O)(=O)c1ccc(Cl)nc1 , is the recorded IC50 below the cut-off of 20 nM?
Criterion met

For C[C@H]1[C@H](F)C[C@@H](C(=O)NCc2cc(-c3cnc(C(F)(F)F)nc3)ncc2C(F)(F)F)N1S(=O)(=O)c1ccncc1 , is the recorded IC50 below the cut-off of 20 nM?
Criterion not met

For C[C@H]1[C@H](F)C[C@@H](C(=O)NCc2cc(-c3cnc(C(F)(F)F)nc3)ncc2C(F)(F)F)N1S(=O)(=O)c1cncc(F)c1 , is the recorded IC50 below the cut-off of 20 nM?
Criterion not met

For C[C@H]1[C@H](F)C[C@@H](C(=O)NCc2cc(-c3cnc(C(F)(F)F)nc3)ncc2C(F)(F)F)N1S(=O)(=O)c1ccc(F)cn1 (single isomer, unassigned) , is the recorded IC50 below the cut-off of 20 nM?
Criterion met
